Measured values drawn from PubChem BioAssay AID330 for this set.

- System: P388 leukemia ip, CD2F1 mice, survival T/C
- ASSAY REMARKS: NCI In Vivo Anticancer Drug Screen. Data for tumor model P388 Leukemia (intraperitoneal) in CD2F1 (CDF1) mice
- STUDY CONDITIONS: endpoint: median survival time; dose: 200.0 mg/kg/injection; schedule: Q04DX002 (ip); vehicle: saline with Tween-80; higher = longer survival
Inconclusive results and toxic doses are left out.
Entries and their T/C values follow.

Consider the following illustrative entries.
MOLECULE	T/C
NC(=Nc1ccc(Cl)cc1)N/N=C/c1ccc(Cl)c(Cl)c1	107 % of control
O=Nc1c2ccccc2c(NO)c2ccccc12	92 % of control
CC(=O)Nc1nccs1.CC(=O)Nc1nccs1.[Cl][Pt][Cl]	91 % of control
O=C(NCN1CCOCC1)c1ccccc1O	104 % of control
C=C(/C=C/C1OC2OC(C)(C)OC2C1OC)OP(=O)(OCC)OCC (stereo unspecified)	100 % of control

Now let's try a different one.
Ask: Report T/C for CC(=O)OC1CC(OC(C)=O)C2(C)CC3=C(O)C(=O)OC3CC(C)C12 (stereo unspecified) please.
Reply: 101 % of control

----------
- Tested on: P388 leukemia ip, CD2F1 mice, survival T/C
- ASSAY REMARKS: NCI In Vivo Anticancer Drug Screen. Data for tumor model P388 Leukemia (intraperitoneal) in CD2F1 (CDF1) mice
- STUDY CONDITIONS: endpoint: median survival time; dose: 50.0 mg/kg/injection; schedule: Q01DX005 (ip); vehicle: saline; higher = longer survival
Toxic doses and inconclusive results are not listed.
METRIC: T/C

MOLECULE	T/C
O=NN(CC(=O)O)CC1(O)OCC(O)C(O)C1O (centres undefined)	94 % of control
CC(C)C(=O)NCCCCCN1CCCCC1	106 % of control
CC1CCP(=O)(c2ccccc2)C1 (centres undefined)	104 % of control
O=c1c(Br)cn(Cc2ccccc2)cc1Br	92 % of control
COC(=O)C(Cc1ccccc1C(N)=O)(OC)OC	98 % of control
CN(C)CCN(Cc1ccc(Cl)s1)c1ccccn1	101 % of control
CNC(=O)OC(C)C1CCCCC1OC(=O)NC (centres undefined)	100 % of control
C1CSCN1	107 % of control

Now, please, on to the next molecule.
Ask: For the molecule shown here, C1CCN2CC3CC(CN4CCCCC34)C2C1 (centres undefined) , give the reported T/C.
Reply: 99 % of control

----------
- System: P388 leukemia ip, CD2F1 mice, survival T/C
- ASSAY REMARKS: NCI In Vivo Anticancer Drug Screen. Data for tumor model P388 Leukemia (intraperitoneal) in CD2F1 (CDF1) mice
- STUDY CONDITIONS: endpoint: median survival time; dose: 50.0 mg/kg/injection; schedule: Q01DX009 (ip); vehicle: Klucel (hydroxypropylcellulose) (HPC); higher = longer survival
Toxic doses and inconclusive results are not listed.
Each entry below carries its reported T/C.

The cases that follow already have their T/C on record.
MOLECULE	METRIC	REPORTED
COc1ccc(/C(C#N)=C/c2cccs2)cc1	T/C	111 % of control
COc1cc(C2(c3ccc(O)c(OC)c3)CCCCC2)ccc1O	T/C	100 % of control

Ask: For the molecule Cc1ccc(NC(=O)NCc2ccncc2)cc1NC(=O)NCc1ccncc1 , what T/C is on record?
Reply: 112 % of control

Ask: Field entry: CCCCNC(=S)NC1C2CC3CC(C2)CC1C3 (configuration not stated)
Reply: 97 % of control

Ask: What do you have for COc1ccc2nc(NC(=O)Nc3ccc(Cc4ccc(NC(=O)Nc5nc6ccc(OC)cc6s5)cc4)cc3)sc2c1 ?
Reply: 100 % of control

Ask: And the next one, CCSc1nc2ccc(NC(=O)/C=C/C(=O)O)cc2s1 ?
Reply: 103 % of control

----------
compounds and their reported T/C
- System: P388 leukemia ip, CD2F1 mice, survival T/C
- ASSAY REMARKS: NCI In Vivo Anticancer Drug Screen. Data for tumor model P388 Leukemia (intraperitoneal) in CD2F1 (CDF1) mice
- STUDY CONDITIONS: endpoint: median survival time; dose: 200.0 mg/kg/injection; schedule: Q04DX003 (ip); vehicle: saline with Tween-80; higher = longer survival
Toxic doses and inconclusive results are not listed.

Ask: Any idea what T/C came out for CCCCOC(=O)c1ccccn1 on P388 leukemia ip, CD2F1 mice, survival T/C?
Reply: 95 % of control

Ask: Try the compound O=C1NC(CCCl)C(=O)NC1CCCl (centres undefined)
Reply: 100 % of control

Ask: Then CCN(CC)C1CS(=O)(=O)OC2=C1CSCC2 (centres undefined) ?
Reply: 100 % of control

Ask: And COc1ccc(C(=O)CC(C(=O)O)c2ccc3c(c2)OCO3)cc1OC (centres undefined) ?
Reply: 90 % of control

Ask: Would you kindly repeat that for O=C(Nc1ccc([N+](=O)[O-])cc1)OCCI ?
Reply: 92 % of control

----------
- Test system: P388 leukemia ip, CD2F1 mice, survival T/C
- ASSAY REMARKS: NCI In Vivo Anticancer Drug Screen. Data for tumor model P388 Leukemia (intraperitoneal) in CD2F1 (CDF1) mice
- STUDY CONDITIONS: endpoint: median survival time; dose: 100.0 mg/kg/injection; schedule: Q01DX009 (ip); vehicle: saline
Toxic doses and inconclusive results are not listed. The calls were made as follows: active = survival T/C of 150% or more; inactive = T/C below 125% in these data.
Please answer using one outcome listed in active, inactive

MOLECULE	ASSIGNED CATEGORY
CC1N=C(SCc2ccc(Cl)cc2)N2C(C)N=C(SCc3ccc(Cl)cc3)N12 (stereo not given)	inactive

Ask: Identify the outcome logged in this assay for the molecule shown: Cc1cccn2cnnc12
Reply: inactive

Ask: Repeat for the following molecule: CN(C1=NC1(C)C)c1ccccc1
Reply: inactive

Ask: Do the same for S=C(S)N1CCCC1 please
Reply: inactive

Ask: Likewise for CC(=O)Nc1nc(NC(C)=O)c(N=O)c(NC(C)=O)n1 ?
Reply: inactive

Ask: Would you kindly repeat that for O=C(O)CCc1cc(Br)no1 ?
Reply: inactive

Ask: Then what about the molecule Cc1c(-c2ccccc2)ccnc1/C=N/NC(N)=S ?
Reply: inactive

Ask: What about this molecule? O=C(O)CC(/C=C\C(=O)C(=O)O)=C\O
Reply: inactive

Ask: Likewise for O=[N+]([O-])c1cc2c(cc1Br)C1C(C3C2C2(Cl)C(Cl)=C(Cl)C3(Cl)C2(Cl)Cl)C2(Cl)C(Cl)=C(Cl)C1(Cl)C2(Cl)Cl (stereo not given) ?
Reply: inactive

----------
- Tested on: P388 leukemia ip, CD2F1 mice, survival T/C
- ASSAY REMARKS: NCI In Vivo Anticancer Drug Screen. Data for tumor model P388 Leukemia (intraperitoneal) in CD2F1 (CDF1) mice
- STUDY CONDITIONS: endpoint: median survival time; dose: 120.0 mg/kg/injection; schedule: Q01DX005 (ip); vehicle: Klucel (hydroxypropylcellulose) (HPC); higher = longer survival
Toxic doses and inconclusive results are not listed.
Reported T/C values are given for each entry in this list.

Worked examples follow.
MOLECULE	METRIC	REPORTED
CC1(C)CC(=O)C2=C(SC3=C(C2)C(=O)CC(C)(C)S3)S1	T/C	100 % of control
O=C(Nc1cccc(C(F)(F)F)c1)C(Cl)=C(Cl)Cl	T/C	111 % of control
CC1=C(O)c2cc3c(cc2C(=O)C1=O)OCO3	T/C	88 % of control
O=C(O)c1ccc2c(c1Sc1ccccc1)C(=O)c1ccccc1C2=O	T/C	107 % of control
CN(C)C(CS(=O)(=O)c1ccccc1)c1ccccc1 (centres undefined)	T/C	91 % of control
CCCOC1(C)Oc2cc3c(cc2C(c2cc(OC)c(OC)c(OC)c2)C1C)OCO3 (centres undefined)	T/C	96 % of control

Ask: Reported T/C, molecule CCOC(=O)c1ccc(NC(=O)CCOc2ccccc2)cc1 : ____
Reply: 88 % of control

Ask: Another molecule: O/N=C/C(=NCc1ccccn1)NO
Reply: 103 % of control

Ask: N#C/C(=N\Nc1ccccc1Cl)C(=O)C1CC1 , same question.
Reply: 100 % of control

Ask: Also, CC(=O)c1c(C)n(-c2ccccc2)c2c1nnc1ccccc12 please.
Reply: 96 % of control

Ask: Again, but for CC(C)=NNC1=NC(CC(C)C)P(=O)(NCCCCCCNP2(=O)SC(NN=C(C)C)=NC2CC(C)C)S1 (centres undefined)
Reply: 103 % of control

----------
- System: P388 leukemia ip, CD2F1 mice, survival T/C
- ASSAY REMARKS: NCI In Vivo Anticancer Drug Screen. Data for tumor model P388 Leukemia (intraperitoneal) in CD2F1 (CDF1) mice
- STUDY CONDITIONS: endpoint: median survival time; dose: 50.0 mg/kg/injection; schedule: Q01DX005 (ip); vehicle: Klucel (hydroxypropylcellulose) (HPC); higher = longer survival
Inconclusive results and toxic doses are left out.
METRIC: T/C

COMPOUND	TGT	T/C
CC(=O)C1CCC2C3CC4OCC5(CCC(O)CC45Br)C3CCC12C (stereo not given)	P388 leukemia ip, CD2F1 mice, survival T/C	104 % of control

Ask: Requested read-out: T/C. Entry: Cc1ccc(OCCCCBr)c(Br)c1
Reply: 105 % of control

Ask: Thanks! And CCOC(=O)c1cnc(-c2ccccc2)n(-c2ccccc2)c1=O ?
Reply: 105 % of control

Ask: Same thing, different compound: Cc1ccnc(NCCCNc2nccc(C)n2)n1
Reply: 102 % of control

Ask: Next entry: O=C1OC(c2ccccc2)=N/C1=C/c1cccn(-c2ccccc2)c1=S
Reply: 94 % of control

Ask: Similarly, O=C(O)C1NCCC1Oc1ccccc1 (stereo not given) ?
Reply: 99 % of control
